Test system: PANC-1
PROTOCOL: cells
RUN_PARAMETERS: Homo sapiens, PANC-1, 48 h
Description: Antiproliferative activity against human PANC-1 cells assessed as inhibition of cell growth incubated for 48 hrs by propidium iodide staining based fluorometer assay
For each record, check the reported IC50: if it is below 5 µM write Yes, else write No.

INPUT: Consider `COc1ccc(/C=C2\CCc3ccc(Cl)cc3C2=O)c(Cl)c1OC` . Does its IC50 lie strictly below 5 µM?
OUTPUT: No

INPUT: Here's an entry: `COc1cccc2c1CC/C(=C\c1ccc(OC)c(OC)c1Cl)C2=O` . Is its IC50 below 5 µM?
OUTPUT: No

INPUT: Is the reported IC50 for `COc1cc(/C=C2\CCc3ccc(Cl)cc3C2=O)c(Br)c(OC)c1OC` strictly below 5 µM?
OUTPUT: No

INPUT: Does the reported IC50 of the following compound sit strictly below 5 µM? `COc1cccc(/C=C2\CN(C)C/C(=C\c3cccc(OC)c3Cl)C2=O)c1Cl`
OUTPUT: Yes

INPUT: Determine if `COc1cccc(/C=C2\CCc3c(OC)cccc3C2=O)c1Cl` shows IC50 strictly lower than 5 µM.
OUTPUT: No

INPUT: In the record for `COc1cccc(/C=C2\CCc3ccc(Br)cc3C2=O)c1Cl` , is IC50 less than 5 µM?
OUTPUT: No

INPUT: Please determine if `COc1ccc(/C=C2\CCc3ccc(F)cc3C2=O)c(Cl)c1OC` is below 5 µM in terms of IC50.
OUTPUT: No

INPUT: For `COc1cc(/C=C2\CCc3c(O)cccc3C2=O)c(Br)c(OC)c1OC` , is the recorded IC50 below the cut-off of 5 µM?
OUTPUT: Yes

INPUT: Here's an entry: `COc1cccc(/C=C2\CCc3c(OC)ccc(OC)c3C2=O)c1Cl` . Is its IC50 below 5 µM?
OUTPUT: No

INPUT: Does the reported IC50 of CCN(CC)CCON=C1/C(=C/c2cc(OC)c(OC)c(OC)c2Br)CC(C)C/C1=C\c1cc(OC)c(OC)c(OC)c1Br (stereo not given) stay below 5 µM?
OUTPUT: Yes

INPUT: Please state whether IC50 is below 5 µM for `COc1ccc(OC)c2c1CC/C(=C\c1ccc(OC)c(OC)c1Cl)C2=O`
OUTPUT: Yes

INPUT: Is it true that IC50 reported for `COc1ccc(/C=C2\CCc3ccc([N+](=O)[O-])cc3\C2=N\O)c(Cl)c1OC` is less than 5 µM?
OUTPUT: Yes

INPUT: Report whether reported IC50 is lower than 5 µM (strictly) for COc1cc(/C=C2\CC(C)C/C(=C\c3cc(OC)c(OC)c(OC)c3Br)C2=NO)c(Br)c(OC)c1OC (stereo not given)
OUTPUT: Yes

INPUT: Does the reported IC50 of `COc1cccc(/C=C2\CNC/C(=C\c3cccc(OC)c3Cl)C2=O)c1Cl` stay below 5 µM?
OUTPUT: No

INPUT: Item `COc1cccc(/C=C2\CCC/C(=C\c3cccc(OC)c3Cl)C2=O)c1Cl` : IC50 beneath 5 µM, strictly?
OUTPUT: No

INPUT: Is 5 µM strictly greater than the compound's reported IC50? compound: `COc1ccc2c(c1)CC/C(=C\c1cccc(OC)c1Cl)C2=O`
OUTPUT: Yes

INPUT: Regarding COc1ccc(/C=C2\CC(C(C)C)C/C(=C\c3ccc(OC)c(OC)c3Cl)C2=O)c(Cl)c1OC (stereo not given) , kindly confirm whether its IC50 is beneath 5 µM.
OUTPUT: No

INPUT: Here's an entry: `CCN(CC)CCO/N=C1\C(=C\c2ccc(OC)c(OC)c2Cl)CCc2ccc([N+](=O)[O-])cc21` . Is its IC50 below 5 µM?
OUTPUT: No

INPUT: Lab note: IC50 threshold 5 µM. Does this compound come in strictly under it? `COc1ccc(/C=C2\CCc3c(O)cccc3C2=O)c(Cl)c1OC`
OUTPUT: Yes
